// provenance: PubChem BioAssay AID1159580

Parameter: normalized growth. Scope: all listed entries.
Experiment: chemical genetic growth profiling, strain panel (AID 1159580);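 note: tested at 20 µM; growth read once vehicle control cultures reached saturation at 30 °C; 1 = growth at the plate median or of vehicle wells; lower values mean less growth of the strain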
Settings: S. cerevisiae deletion strains, growth OD, locus YPL106C, strain sse1, stronger effect = lower value
In all, about 5,500 compounds went through this assay and about 2,000 (36%) were called active. Inconclusive results (about 18%) are left out. Some of the results follow.
Format: numeric value only, no unit, no commentary.

Oc1cc(O)c2c(c1)O[C@H](c1cc(O)c(O)c(O)c1)[C@H](O)C2 0.99
Oc1cc(O)c2c(c1)O[C@H](c1ccc(O)c(O)c1)[C@H](O)C2 1.01

Query string: Please indicate normalized growth recorded for "COc1ccc([C@H]2Oc3c(I)c(OC)cc(OC)c3C[C@@H]2O)cc1OC"
Result string: 1.01

* * *

Test: chemical genetic growth profiling, strain panel (AID 1159580);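 note: tested at 20 µM; growth read once vehicle control cultures reached saturation at 30 °C; 1 = growth at the plate median or of vehicle wells; lower values mean less growth of the strain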
Conditions: S. cerevisiae deletion strains, growth OD, locus YDR101C, strain arx1
About 2,000 (36%) of roughly 5,500 compounds were called active. About 18% were inconclusive and are not listed. Cut-off read from the data, not from the text of the source: active = normalized growth mostly below about 0.91 (no sharp cut-off); inconclusive = no clear call, values can overlap the other calls; inactive = mostly above about 0.92. This is one part of the list.
Respond using exactly one of the listed classes: Y (active), N (inactive)

compound	class.label
CCC(C)C(=O)OC1CC2(C)C(c3ccoc3)OC(=O)CC23OC2(C)OC34C(OC(=O)C(C)C)C3(O)C(OC(=O)C5(C)OC5C)C5(C)CC3(O)C(C)(C5C(=O)OC)C14O2 (stereo not given)	N
O=C(O[C@@H]1Cc2c(O)cc(O)cc2O[C@@H]1c1ccc(O)c(O)c1)c1cc(O)c(O)c(O)c1	N
COC(=O)[C@@H]1OC(=O)C2OC23[C@@]1(C)CCC1[C@]2(C)C(C[C@H](O)[C@]13C)C(C)(C)[C@H](OC(C)=O)C[C@@H]2OC(C)=O (stereo not given in full)	N
CN(C)CCN(Cc1cccs1)c1ccccn1	N
C[n+]1c2cc(N)ccc2cc2ccc(N)cc21	Y

Query string: Recorded test outcome, item Oc1cc(O)c2c(c1)OC(c1cc(O)c(O)c(O)c1)C(O)C2c1c(O)cc(O)c2c1OC(c1cc(O)c(O)c(O)c1)C(O)C2c1c(O)cc(O)c2c1OC(c1cc(O)c(O)c(O)c1)C(O)C2 (stereo not given)
Result string: N

Query string: Recorded test outcome, item "COc1ccc(-c2coc3cc(OC)ccc3c2=O)cc1"
Result string: N

* * *

Experiment: chemical genetic growth profiling, strain panel (AID 1159580);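 note: tested at 20 µM; growth read once vehicle control cultures reached saturation at 30 °C; 1 = growth at the plate median or of vehicle wells; lower values mean less growth of the strain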
Conditions: S. cerevisiae deletion strains, growth OD, locus YDR318W, strain mcm21, stronger effect = lower value
In all, about 5,500 compounds went through this assay and about 2,000 (36%) were called active. Inconclusive results (about 18%) are left out. This is one part of the list.
measured.attribute: normalized growth
Format: numeric value only, no unit, no commentary.

Recorded results for 2 molecules are shown here.
molecule	normalized growth
CNCCC(Oc1ccc(C(F)(F)F)cc1)c1ccccc1 (stereo unspecified)	0.996
NCCc1cnc[nH]1	1.02

Query string: Please indicate normalized growth recorded for "CC1(C)S[C@@H]2[C@H](NC(=O)[C@H](N)c3ccccc3)C(=O)N2[C@H]1C(=O)O"
Result string: 1.01

Query string: Please indicate normalized growth recorded for "C=CCc1ccc(O)c(OC)c1"
Result string: 0.925

Query string: Please indicate normalized growth recorded for O=C1CCC(N2C(=O)c3ccccc3C2=O)C(=O)N1 (stereo unspecified)
Result string: 0.977

Query string: Please indicate normalized growth recorded for "NCCCS(=O)(=O)O"
Result string: 1
